Origin of measurements: PubChem BioAssay (NCI)

# Tested on: HOP-92 NSCLC
# Assay remarks: NCI-60 one-dose screen, 48 h (100 = growth as untreated, 0 = no growth, -100 = all killed)
# Particulars: 10 µM unless noted
The panel holds about 83,000 compounds, 20% with a hit somewhere; the sample as a whole holds those more often.
Metric name: growth (%)
Write it as a number; the unit % goes unstated.

Value sought: growth, system HOP-92 NSCLC, item NC(=Nc1ccccc1)SCCCSC(N)=Nc1ccccc1 . Result: 41.6

Here O=C(Nc1ccc(Oc2ccc(Nc3nc4ccccc4s3)cc2)cc1)Nc1ccc(Cl)c(C(F)(F)F)c1 was tested on HOP-92 NSCLC, and its growth came to -25

Record for Cc1cc(C)c2c(n1)sc1c(Nc3ccc(OCc4ccccc4)cc3)ncnc12 under target or system HOP-92 NSCLC: growth reported as 88.2

HOP-92 NSCLC growth of CC[C@H](Nc1nc(C)nc(N)c1C#N)c1nc2cccc(NCc3ccc(C(=O)NO)cc3)c2c(=O)n1-c1ccccc1 is -1.54

HOP-92 NSCLC growth of Cc1ccc2oc(=O)cc(-c3nc4ccc([N+](=O)[O-])cc4[nH]3)c2c1 is 52.7

The compound COc1ccc(NC(=O)C2c3ccccc3C(=O)N(CC(C)C)C2c2cccs2)cc1 (stereo unspecified) , when measured on HOP-92 NSCLC, yielded growth of 94.1

Value (growth, HOP-92 NSCLC) for record COC(=O)c1cc2oc(/C=N/NC(=O)c3cc4oc(-c5cccc(C(F)(F)F)c5)cc4[nH]3)cc2n1Cc1ccccc1 = 78.1

Item: COc1cc2nccc(Oc3ccc(NC(=O)C4(C(=O)Nc5ccc(F)cc5)CC4)cc3)c2cc1O | System: HOP-92 NSCLC | growth: 33.4

Log: HOP-92 NSCLC, compound c1ccc(C2=Nc3ccccc3SC2)cc1 , growth = 62.1

The recorded growth with HOP-92 NSCLC for COc1cc2cc(C(=O)Nc3ccccc3)c(N)nc2cc1OC was -11.4

Entry COc1ccc(CCN2COc3c([C@@H](C)CCC=C(C)C)ccc(C)c3C2)cc1OC , HOP-92 NSCLC data, growth value: -1.29

Hey, HOP-92 NSCLC data for COc1cc(/C=C/C(=O)c2ccc(NC(=O)CSc3nnc(-c4ccc(Cl)cc4)n3-c3ccccc3)cc2)cc(OC)c1OC : growth came out at 97.9

Kindly note: HOP-92 NSCLC, CC(C)NC(=O)OCC#CCOC(=O)NC(C)C , growth value reported: 105

Response field growth (HOP-92 NSCLC) for item COc1ccc2nc(NC(=O)/C(=C/c3cc(OC)c(OC)c(OC)c3)c3ccc(OC)c(OC)c3)sc2c1 : 74.3

Recorded growth for Fc1ccc2c(CN3CCO[C@H](COc4cccc(Cl)c4)C3)c[nH]c2c1 on HOP-92 NSCLC was 45.2

Record CCOC(=O)C1=C(C)NC(SCc2nnc(-c3ccc(Cl)cc3)o2)=NC1c1ccc(Cl)cc1 (stereo unspecified) / HOP-92 NSCLC, growth recorded as 64.1

Test item CC(=O)O[C@H]1[C@H](CC#CC#CC[C@@H]2C[C@]3(C)[C@H]4CC=C5[C@H]6[C@@H](C)[C@H](C)CC[C@]6(C(=O)NCCCCCCCCN)CC[C@@]5(C)[C@]4(C)CC[C@H]3C(C)(C)[C@H]2OC(C)=O)C[C@]2(C)[C@H]3CC=C4[C@H]5[C@@H](C)[C@H](C)CC[C@]5(C(=O)NCCCCCCCCN)CC[C@@]4(C)[C@]3(C)CC[C@H]2C1(C)C ; HOP-92 NSCLC; reported growth was 92.3

Entry COc1cc2nccc(Oc3ccc(NC(=O)C4(C(=O)Nc5c(F)cc(F)cc5F)CC4)cc3)c2cc1Oc1ccc(N)cn1 , tested on HOP-92 NSCLC, has a reported growth of 2.04

// assay HOP-92 NSCLC, entry COc1ccc2nc(C)cc(Nc3ccccc3O)c2c1 , growth value = -23.7

Note to self: growth of CN(C)CCOc1nc2c3cccnc3cc(-c3cccc(Cl)c3)c2c2ncccc12 with HOP-92 NSCLC was 42.7

growth on HOP-92 NSCLC for CC(C)CC(NC(=O)OCC1c2ccccc2-c2ccccc21)C(=O)O (stereo unspecified) is 96.2

Value (growth, HOP-92 NSCLC) for record NS(=O)(=O)c1ccc(N2N=C(c3ccc(Br)cc3)CC2c2cn(-c3ccccc3)nc2-c2ccc(Cl)cc2)cc1 (stereo unspecified) = 157

Tested on HOP-92 NSCLC: CCOC(CN1CCN(CC(C)C(=O)c2ccccc2)CC1)c1ccccc1 (stereo unspecified) . Observed growth: 97.5

// compound COc1cc(/C=C/C(=O)c2c(C)nc3ccccc3c2C)ccc1OCCCOc1cc2c(cc1OC)C(=O)N1CCC[C@H]1C=N2 , assay HOP-92 NSCLC, growth value: -45.1

Tested system HOP-92 NSCLC; growth recorded for COc1cc(C2C=C(C)N=C3SC=NN32)cc(OC)c1OC (stereo unspecified) was 91.4

Form field growth for item CC(=O)c1nn(-c2ccccc2)/c(=N\N=C\c2coc3ccc(F)cc3c2=O)s1 on HOP-92 NSCLC: 90.6

Readout growth for CCN(CC)C(Cl)=Nc1ccc(Cl)cc1 , test system HOP-92 NSCLC, was 108

HOP-92 NSCLC growth of NCCCOc1cc2ccccc2cc1C(=O)NCCCOc1cc2ccccc2cc1C(=O)Nc1ccc(Cl)cc1O is -75.9

Record COc1ccc(NC(=O)c2ccc(C(F)(F)F)nc2Nc2ccc(Cl)cc2C)cc1Cl / HOP-92 NSCLC, growth recorded as -8.93

Per the reported HOP-92 NSCLC data, CCCCCCCCCCCCCCCCOc1ccc(S(=O)(=O)N(C)C)cc1[N+](=O)[O-] has growth of 46.2

Sample CC(=O)c1cccc(Nc2ncnc3ccc(NC(=O)c4ccco4)cc23)c1 , system: HOP-92 NSCLC. Its growth is 71.7

I looked up N[C@@H](CO)C(=O)O and its growth for HOP-92 NSCLC was 89.8

Observed growth, HOP-92 NSCLC, COc1ccc2[nH]c(O)c(/C=c3/ccc4c(c3)N=C(c3ccc(F)cc3)N=4)c2c1 : 4.86

Value sought: growth, system HOP-92 NSCLC, item CCOC(=O)c1sc2nc(-c3cc4ccccc4o3)cc(-c3ccc(Cl)cc3)c2c1N . Result: 71.1

Observed growth on HOP-92 NSCLC, entry C#CC[C@@H]1C[C@]2(C)[C@H]3CC=C4[C@H]5[C@@H](C)[C@H](C)CC[C@]5(C(=O)NCCCCCCCCN)CC[C@@]4(C)[C@]3(C)CC[C@H]2C(C)(C)[C@H]1OC(C)=O , equals 53.1

Test item COc1ccc(-c2cnc3ccnn3c2-c2cc(OC)c(OC)c(OC)c2)cc1 ; HOP-92 NSCLC; reported growth was 103
